B1: PhoQ; a variant is named by its letters at X, in order, P23837 (parent)
chain: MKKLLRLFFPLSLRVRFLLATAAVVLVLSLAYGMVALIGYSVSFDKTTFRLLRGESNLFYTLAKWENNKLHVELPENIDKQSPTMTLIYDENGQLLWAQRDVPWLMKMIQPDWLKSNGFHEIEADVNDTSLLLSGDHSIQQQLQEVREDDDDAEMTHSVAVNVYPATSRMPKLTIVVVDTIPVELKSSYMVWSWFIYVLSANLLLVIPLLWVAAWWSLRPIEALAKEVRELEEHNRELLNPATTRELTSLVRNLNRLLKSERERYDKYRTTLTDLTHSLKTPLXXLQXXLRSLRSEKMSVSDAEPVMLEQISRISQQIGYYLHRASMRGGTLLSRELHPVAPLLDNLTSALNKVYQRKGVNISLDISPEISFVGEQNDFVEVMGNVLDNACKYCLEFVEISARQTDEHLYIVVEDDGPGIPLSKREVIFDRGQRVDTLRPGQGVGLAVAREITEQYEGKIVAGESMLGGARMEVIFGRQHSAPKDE

Variants of: B1
Test: enrichment ratio after two sorts for PhoP signalling (ratio (wild type AVST 3.29)); higher = more functional
Details: with PhoP (E. coli)
In all, about 140,000 sequences were measured (“enrichment ratio after two sorts for PhoP signalling”: median about 0, highest 2% from about 11 on). Shown is part of a subset that was picked to be rich in the highest values.
Could you label it Fulfilled if measured enrichment ratio is 10 or higher, and Not fulfilled otherwise?

Previously resolved entries follow.
[
  {
    "mutations": "GGCN",
    "label-class": "Not fulfilled"
  },
  {
    "mutations": "TVHF",
    "label-class": "Not fulfilled"
  },
  {
    "mutations": "AQNG",
    "label-class": "Fulfilled"
  }
]

Request: Hi team, for EYGF , is the recorded enrichment ratio at or above 10?
Response: Not fulfilled

Request: Kindly determine if enrichment ratio recorded for THCF is above or exactly 10.
Response: Fulfilled
